- target of assay: PI3K alfa (Homo sapiens)
- Construct: His tag (C); made in house; host or cells: baculovirus BV1075; Tn5 (Trichoplusia ni) or TiniPro insect cells
- Sequence (P42336 with tags, fused parts or gaps limits assumed): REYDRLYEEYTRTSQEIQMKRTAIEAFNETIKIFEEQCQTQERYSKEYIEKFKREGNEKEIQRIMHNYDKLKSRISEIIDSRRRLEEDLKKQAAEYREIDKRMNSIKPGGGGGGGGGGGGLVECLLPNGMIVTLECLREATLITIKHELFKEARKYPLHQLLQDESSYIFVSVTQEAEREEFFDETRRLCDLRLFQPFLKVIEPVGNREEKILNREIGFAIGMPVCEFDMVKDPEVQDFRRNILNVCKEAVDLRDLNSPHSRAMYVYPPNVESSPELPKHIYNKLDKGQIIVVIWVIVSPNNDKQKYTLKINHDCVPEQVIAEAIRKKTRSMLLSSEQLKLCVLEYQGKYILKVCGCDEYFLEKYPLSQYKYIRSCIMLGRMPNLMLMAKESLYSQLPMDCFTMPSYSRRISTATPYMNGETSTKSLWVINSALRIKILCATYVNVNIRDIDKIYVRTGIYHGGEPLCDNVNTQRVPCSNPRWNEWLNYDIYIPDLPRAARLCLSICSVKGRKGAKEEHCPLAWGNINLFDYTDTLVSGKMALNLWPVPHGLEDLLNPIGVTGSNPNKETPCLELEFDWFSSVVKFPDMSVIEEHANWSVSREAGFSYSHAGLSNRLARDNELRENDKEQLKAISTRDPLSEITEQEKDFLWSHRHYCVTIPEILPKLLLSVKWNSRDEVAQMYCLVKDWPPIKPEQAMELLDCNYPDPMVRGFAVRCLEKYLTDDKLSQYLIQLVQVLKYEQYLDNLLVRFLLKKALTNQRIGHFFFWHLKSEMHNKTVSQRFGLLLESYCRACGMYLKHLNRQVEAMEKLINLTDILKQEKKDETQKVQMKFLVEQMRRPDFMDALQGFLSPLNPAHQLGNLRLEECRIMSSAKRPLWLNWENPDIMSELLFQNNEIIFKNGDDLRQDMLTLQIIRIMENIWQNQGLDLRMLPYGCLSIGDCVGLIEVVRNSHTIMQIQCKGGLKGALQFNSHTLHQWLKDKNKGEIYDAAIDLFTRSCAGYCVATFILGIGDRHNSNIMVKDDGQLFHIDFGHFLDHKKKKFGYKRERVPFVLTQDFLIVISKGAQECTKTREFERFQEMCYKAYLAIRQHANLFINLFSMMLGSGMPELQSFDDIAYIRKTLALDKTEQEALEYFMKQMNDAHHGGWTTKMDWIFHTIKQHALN
- assay notes: PI3K alpha kinase assay (Kinase-Glo luminescence)
- Format: biochemical
- experimental context: read-out: EPK_PI3Kalfa/IC50
- Protocol: In a more preferred assay, the kinase reaction is performed in a final volume of 10 μL per well of a low volume non binding CORNING, 384 well black plate (Cat. No. #3676). The final concentrations of ATP and phosphatidyl inositol (PI) in the assay are 1 μM and 10 μg/mL respectively. […] IC50 is determined by a four parameter curve fitting routine that comes along with “excel fit”. […] Alternatively, IC50 values are calculated using idbsXLfit model 204, which is a 4 parameter logistic model.
measurement kind: IC50 (nM)

>  <compound>
CCNc1cc(-c2ccc3ncc4c(c3c2)n(-c2ccc(N3CC(F)(F)C(F)(F)C3)nc2C)c(=O)n4C)cnc1CO

>  <IC50, nM>
27

$$$$

A: CCOc1cc(-c2ccc3ncc4c(c3c2)n(-c2cccnc2C)c(=O)n4C)cnc1C
B: Cc1nc(N2CCC(O)C2)ccc1-n1c(=O)n(C)c2cnc3ccc(-c4cncc(C(C)(C)O)c4)cc3c21 (stereo not drawn)
C: CCNc1ncc(-c2ccc3ncc4c(c3c2)n(-c2ccc(N3CC(O)C3)nc2C)c(=O)n4C)cn1
D: Cc1nc(N2CC(F)(F)C(F)(F)C2)ccc1-n1c(=O)n(C)c2cnc3ccc(-c4cncc(C(C)(C)O)c4)cc3c21
**Q:** Could you please sort these 4 entries by IC50 from high to low? Provide your answer as the labels ordered per the instruction.
**A:** A, C, B, D
(A: 81 nM, C: 49 nM, B: 10 nM, D: 7 nM)

I: CNc1ncc(-c2ccc3ncc4c(c3c2)n(-c2ccc(N3CC[C@@H](O)C3)nc2C)c(=O)n4C)cn1
II: CNc1ccc(-c2ccc3ncc4c(c3c2)n(-c2ccc(N3CCC3)nc2C)c(=O)n4C)cn1
**Q:** API: POST /compare with I and II ; response names the item with higher IC50. Return value: the label identifying the chosen record.
**A:** I
(I: 97 nM, II: 27 nM)

1: Cc1nc(N2CCC2)ccc1-n1c(=O)n(C)c2cnc3ccc(-c4cncc(N5CCC5)c4)cc3c21
2: COc1ccc(-n2c(=O)n(C)c3cnc4ccc(-c5cnc(C(OC)OC)c(OC)c5)cc4c32)c(OC)n1
3: COc1cc(-c2ccc3ncc4c(c3c2)n(-c2ccc(F)nc2C)c(=O)n4C)cnc1CO
4: Cc1nc(N2CCC2)ccc1-n1c(=O)n(C)c2cnc3ccc(-c4cncc(C(C)(C)O)c4)cc3c21
**Q:** Rank items: key IC50, increasing. Provide your answer as the labels ordered per the instruction.
**A:** 4, 1, 3, 2

---

- assay notes: High-throughput equilibrium solubility at pH 6.8
- Format: physicochemical
- experimental context: pH 6.8, aqueous buffer, thermodynamic from solid; read-out: HT-Eq Sol/pH 6.8
measurement kind: solubility thermodynamic (µg/mL)

I: CNc1ncc(-c2ccc3ncc4c(c3c2)n(-c2ccc(N(C)C)nc2C)c(=O)n4C)cn1 [Example 19.1]
II: CCOc1ccc(-c2ccc3ncc4c(c3c2)n(-c2ccc(C)nc2C)c(=O)n4C)cn1 [Example 14.2]
III: COc1cc(-c2ccc3ncc4c(c3c2)n(-c2ccc(N(C)C)nc2C)c(=O)n4C)cnc1CO [Example 19.4]
IV: Cc1ccc(-n2c(=O)n(C)c3cnc4ccc(-c5cncc(NC(C)C)c5)cc4c32)c(C)n1 [Example 14.8]
V: CCOc1cc(-c2ccc3ncc4c(c3c2)n(-c2cccnc2C)c(=O)n4C)cnc1COC [Example 2.28]
**Q:** Lab note: solubility thermodynamic ranking, ascending, for the listed molecules. Provide your answer as the labels ordered per the instruction.
**A:** II, I, IV, V, III
